biological target: HDAC1 (Homo sapiens, UniProt Q13547); construct: purchased BPS Bioscience 50051; test: HDAC1 (ZMAL) fluorogenic activity assay; format: biochemical; settings: at 10 μM; read-out: HDAC1 (ZMAL) percent enzyme inhibition
Sequence (Q13547 whole entry): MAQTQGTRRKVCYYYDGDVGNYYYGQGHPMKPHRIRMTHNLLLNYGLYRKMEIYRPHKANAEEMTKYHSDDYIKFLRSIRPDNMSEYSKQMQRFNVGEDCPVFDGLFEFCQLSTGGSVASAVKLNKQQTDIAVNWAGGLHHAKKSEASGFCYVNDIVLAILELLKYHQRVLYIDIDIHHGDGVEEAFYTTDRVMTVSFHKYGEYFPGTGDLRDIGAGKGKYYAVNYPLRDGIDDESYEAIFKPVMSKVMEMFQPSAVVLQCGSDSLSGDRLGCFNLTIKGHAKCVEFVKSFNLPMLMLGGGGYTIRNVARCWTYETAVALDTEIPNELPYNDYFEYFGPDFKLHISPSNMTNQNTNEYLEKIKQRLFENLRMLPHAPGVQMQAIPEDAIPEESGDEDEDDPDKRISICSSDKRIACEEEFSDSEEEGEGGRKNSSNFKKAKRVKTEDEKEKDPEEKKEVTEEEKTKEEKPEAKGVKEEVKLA
assay.readout: inhibition at 10 µM (%)

Look over these answered cases.
smiles | inhibition at 10 µM [%]
O=C(NO)C1CCN(CCNCc2ccccc2)CC1 | 20
O=C(NO)C1CCN(CCc2cccc(Br)c2)CC1 | 6
O=C(NO)C1CCN(CC(c2ccccc2)c2ccccc2)CC1 | 8
O=C(NO)C1CCN(CCc2ccccc2)CC1 | 7

P. O=C(NO)C1CCN(Cc2ccccc2)CC1
Q. O=C(NO)C1CCN(CCNCc2ccc(Br)cc2)CC1
[ask] Would you let me know which has the greater inhibition at 10 µM value, P or Q ? // return label of chosen record
[reply] P
(P: 18%, Q: 10%)

---

biological target: HDAC10-nanoluciferase fusion in HeLa cells (Homo sapiens, UniProt Q969S8); test: BRET intracellular target engagement assay, HDAC10
assay.readout: IC50 (µM)

I. O=C(NO)C1CCN(CCc2ccc(Br)cc2)CC1 [DH67]
II. CN(CCCC(=O)NO)CCNC(=O)c1ccc(/C(N)=N/O)cc1 [DKFZ-750]
III. C[N+](C)(CCCC(=O)[N-]O)CCNC(=O)c1ccccc1 [DKFZ-777]
[ask] Put the above entries in order of falling IC50. Return value: ordered labels per request.
[reply] III, II, I
(III: 31.6 µM, II: 2 µM, I: 0.375 µM)

---

molecular target: HDAC3/NcoR2 complex (Homo sapiens, UniProt O15379); construct: purchased BPS Bioscience 50003; experiment: HDAC-Glo I/II assay, HDAC3/NcoR2 complex; format: biochemical; conditions: recombinant human HDAC3/NcoR2 complex, read-out: pIC50 HDAC3 Glo (converted)
Sequence (O15379 whole entry): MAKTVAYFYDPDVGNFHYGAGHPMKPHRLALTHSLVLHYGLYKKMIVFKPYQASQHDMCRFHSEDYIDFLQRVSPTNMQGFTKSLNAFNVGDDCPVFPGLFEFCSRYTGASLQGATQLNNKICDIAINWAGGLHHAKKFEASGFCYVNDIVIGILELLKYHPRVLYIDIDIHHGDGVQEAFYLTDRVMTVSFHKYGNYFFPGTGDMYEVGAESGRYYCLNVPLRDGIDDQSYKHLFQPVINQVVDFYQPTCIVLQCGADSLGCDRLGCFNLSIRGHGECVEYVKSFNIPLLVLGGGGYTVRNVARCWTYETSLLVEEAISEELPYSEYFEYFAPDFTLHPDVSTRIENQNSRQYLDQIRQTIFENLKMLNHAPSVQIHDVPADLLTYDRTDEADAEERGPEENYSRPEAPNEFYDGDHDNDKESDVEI
Sequence (Q9Y618 395-489 partner limits assumed): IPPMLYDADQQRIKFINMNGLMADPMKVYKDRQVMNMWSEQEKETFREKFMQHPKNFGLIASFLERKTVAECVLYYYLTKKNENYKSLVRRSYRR
In this section, each of the compounds is paired with its reported IC50.

Look over these answered cases.
smiles | tested.system | reported
CC(C)N(CCCC(=O)NO)CCC(=O)Nc1ccccc1 | HDAC3/NcoR2 complex (Homo sapiens, UniProt O15379) | < 200 µM
CN(CCCC(=O)NO)CCCc1nc2ccccc2[nH]1 | HDAC3/NcoR2 complex (Homo sapiens, UniProt O15379) | > 100 µM
CN(CCCC(=O)NO)CCNC(=O)c1ccccc1 | HDAC3/NcoR2 complex (Homo sapiens, UniProt O15379) | > 100 µM
CN(CCNC(=O)CS)CCNC(=O)c1ccccc1 | HDAC3/NcoR2 complex (Homo sapiens, UniProt O15379) | > 100 µM
CN(CCCC(=O)NO)CCNC(=O)c1ccc(-c2ccccc2)cc1 | HDAC3/NcoR2 complex (Homo sapiens, UniProt O15379) | ~31.6 µM
C[N+](C)(CCCC(=O)[N-]O)CCNC(=O)c1ccccc1 | HDAC3/NcoR2 complex (Homo sapiens, UniProt O15379) | > 100 µM

[ask] # lookup: IC50 of `CN(CCCC(=O)NO)CCNC(=O)c1ccc(O)cc1`
[reply] > 100 µM

[ask] # lookup: IC50 of `CN(CCCC(=O)NO)CCNC(=O)c1ccc(O)c2ccccc12`
[reply] > 100 µM

[ask] # lookup: IC50 of `CN(CCCC(=O)NO)CCNC(=O)c1ccc2ccccc2c1`
[reply] ~39.8 µM

[ask] # lookup: IC50 of `CN(CCCC(=O)NO)CCNC(=O)c1ccccc1O`
[reply] > 100 µM

[ask] # lookup: IC50 of `CN(CCCC(=O)NO)CCNC(=O)c1ccccc1Br`
[reply] > 100 µM

---

biological target: HDAC8 (Homo sapiens, UniProt Q9BY41); test: HDAC-Glo I/II assay, HDAC8; type: biochemical; set-up: purchased BPS Bioscience 50008; conditions: recombinant human HDAC8, HDAC-Glo; read-out: pIC50 HDAC8 Glo (converted)
Sequence (Q9BY41 whole entry): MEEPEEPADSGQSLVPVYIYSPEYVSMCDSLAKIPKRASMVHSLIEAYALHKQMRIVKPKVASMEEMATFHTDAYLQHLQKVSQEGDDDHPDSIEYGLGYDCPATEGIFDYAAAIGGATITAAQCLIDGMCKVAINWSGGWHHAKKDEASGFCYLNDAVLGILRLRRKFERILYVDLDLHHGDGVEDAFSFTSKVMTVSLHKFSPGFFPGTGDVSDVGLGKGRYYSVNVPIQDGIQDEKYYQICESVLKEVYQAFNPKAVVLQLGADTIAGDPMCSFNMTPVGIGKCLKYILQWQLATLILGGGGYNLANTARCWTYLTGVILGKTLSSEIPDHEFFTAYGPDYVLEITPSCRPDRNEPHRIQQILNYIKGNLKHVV
assay.readout: IC50 (µM)

smiles | value.unit | IC50
CN(CCCC(=O)NO)CCNC(=O)c1c2ccccc2cc2ccccc12 | µM | 0.794
O=C(CCCN(CCC(=O)Nc1ccccc1)Cc1ccccc1)NO | µM | 2.51
CCCN(CCCC(=O)NO)CCC(=O)Nc1ccccc1 | µM | 7.94
CCCCN(CCCC(=O)NO)CCC(=O)Nc1ccccc1 | µM | 7.94
CN(CCCNC(=O)c1ccccc1)CCCC(=O)NO | µM | 25.1
CN(CCCC(=O)NO)CCCc1nc2ccccc2[nH]1 | µM | 10

a. O=C(CCCN(CCC(=O)Nc1ccccc1)C1CC1)NO
b. CN(CCCC(=O)NO)CCNS(=O)(=O)c1ccccc1
c. CN(CCCC(=O)NO)CCNC(=O)c1ccc2cn[nH]c2c1
d. CN(CCCC(=O)NO)CCNC(=O)c1ccc(O)cc1
e. CN(CCCC(=O)NO)CCNC(=O)c1ccccc1O
[ask] // smallest IC50 at index 0, largest at the end Return value: ordered labels per request.
[reply] a, b, c, d, e

I. CN(CCCC(=O)NO)CCNC(=O)c1ccc(O)c2ccccc12
II. CN(CCCC(=O)NO)CCNC(=O)c1ccccc1Br
[ask] Sorting ascending by IC50, which comes first: I or II ? // return label of chosen record
[reply] I

a. CN(CCCC(=O)NO)CCNC(=O)c1cccc(N)c1
b. CN(CCCC(=O)NO)CCNC(=O)c1ccc(-c2ccccc2)cc1
[ask] Sorting ascending by IC50, which comes first: a or b ? // return label of chosen record
[reply] b
(b: 5.01 µM, a: 12.6 µM)

a. CN(CCCC(=O)NO)CCNC(=O)c1ccccc1
b. CN(CCCC(=O)NO)CCNC(=O)c1ccc2ccccc2c1
c. Cc1[nH]c2ccccc2c1CC(=O)NCCN(C)CCCC(=O)NO
[ask] Returns the items ordered by IC50, from maximum to minimum. Return value: ordered labels per request.
[reply] a, c, b

---

Biological target: HDAC10-nanoluciferase fusion in HeLa cells (Homo sapiens, UniProt Q969S8)
Sequence (Q969S8 1-669): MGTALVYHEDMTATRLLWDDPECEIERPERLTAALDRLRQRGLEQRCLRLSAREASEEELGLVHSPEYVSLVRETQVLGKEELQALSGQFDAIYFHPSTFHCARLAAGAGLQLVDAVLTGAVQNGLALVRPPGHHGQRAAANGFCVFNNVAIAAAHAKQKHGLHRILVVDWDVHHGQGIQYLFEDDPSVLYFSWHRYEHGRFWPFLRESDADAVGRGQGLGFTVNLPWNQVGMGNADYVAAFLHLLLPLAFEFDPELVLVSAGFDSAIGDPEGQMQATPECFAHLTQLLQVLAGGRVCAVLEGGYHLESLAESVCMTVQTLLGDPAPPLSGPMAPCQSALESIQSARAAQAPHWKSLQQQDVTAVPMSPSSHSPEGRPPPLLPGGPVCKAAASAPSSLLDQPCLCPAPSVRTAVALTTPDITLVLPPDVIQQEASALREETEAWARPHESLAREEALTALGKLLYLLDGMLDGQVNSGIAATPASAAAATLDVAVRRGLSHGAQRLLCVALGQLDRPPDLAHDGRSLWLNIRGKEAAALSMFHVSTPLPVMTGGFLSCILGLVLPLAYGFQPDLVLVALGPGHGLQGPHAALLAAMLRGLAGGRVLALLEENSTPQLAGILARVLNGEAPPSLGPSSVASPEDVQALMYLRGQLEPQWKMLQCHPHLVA
Experiment: BRET intracellular target engagement assay, HDAC10
assay.readout: IC50 (nM)

a. CC(C)N(CCCC(=O)NO)CCC(=O)Nc1ccccc1 [DKFZ-715]
b. O=C(CCCN(CCC(=O)Nc1ccccc1)Cc1ccccc1)NO [DKFZ-718]
c. COc1ccc(C(=O)NCCN(C)CCCC(=O)NO)c2ccccc12 [DKFZ-774]
d. CN(CCCC(=O)NO)CCc1nc2ccccc2[nH]1 [DKFZ-773]
[ask] Put the above entries in order of falling IC50. Return value: ordered labels per request.
[reply] a, b, d, c

A. CCCCN(CCCC(=O)NO)CCC(=O)Nc1ccccc1 [DKFZ-717]
B. CN(CCCC(=O)NO)CCNC(=O)c1cccc2cn[nH]c12 [DKFZ-757]
C. O=C(CCCN(CCC(=O)Nc1ccccc1)C1CC1)NO [DKFZ-724]
D. CCCN(CCCC(=O)NO)CCC(=O)Nc1ccccc1 [DKFZ-716]
[ask] Returns the items ordered by IC50, from maximum to minimum. Return value: ordered labels per request.
[reply] A, D, C, B

a. O=C(NO)C1CCN(CCc2cccc(Br)c2)CC1 [DH71]
b. O=C(CC1CN(CCC(=O)Nc2ccccc2)C1)NO [DKFZ-770]
[ask] Would you let me know which has the greater IC50 value, a or b ? // return label of chosen record
[reply] b

---

target: HDAC6 (Homo sapiens, UniProt Q9UBN7); construct: purchased BPS Bioscience 50006; test: HDAC6 (ZMAL) fluorogenic activity assay; format: biochemical; settings: at 10 μM; read-out: HDAC6 (ZMAL) percent enzyme inhibition
Sequence (Q9UBN7 whole entry): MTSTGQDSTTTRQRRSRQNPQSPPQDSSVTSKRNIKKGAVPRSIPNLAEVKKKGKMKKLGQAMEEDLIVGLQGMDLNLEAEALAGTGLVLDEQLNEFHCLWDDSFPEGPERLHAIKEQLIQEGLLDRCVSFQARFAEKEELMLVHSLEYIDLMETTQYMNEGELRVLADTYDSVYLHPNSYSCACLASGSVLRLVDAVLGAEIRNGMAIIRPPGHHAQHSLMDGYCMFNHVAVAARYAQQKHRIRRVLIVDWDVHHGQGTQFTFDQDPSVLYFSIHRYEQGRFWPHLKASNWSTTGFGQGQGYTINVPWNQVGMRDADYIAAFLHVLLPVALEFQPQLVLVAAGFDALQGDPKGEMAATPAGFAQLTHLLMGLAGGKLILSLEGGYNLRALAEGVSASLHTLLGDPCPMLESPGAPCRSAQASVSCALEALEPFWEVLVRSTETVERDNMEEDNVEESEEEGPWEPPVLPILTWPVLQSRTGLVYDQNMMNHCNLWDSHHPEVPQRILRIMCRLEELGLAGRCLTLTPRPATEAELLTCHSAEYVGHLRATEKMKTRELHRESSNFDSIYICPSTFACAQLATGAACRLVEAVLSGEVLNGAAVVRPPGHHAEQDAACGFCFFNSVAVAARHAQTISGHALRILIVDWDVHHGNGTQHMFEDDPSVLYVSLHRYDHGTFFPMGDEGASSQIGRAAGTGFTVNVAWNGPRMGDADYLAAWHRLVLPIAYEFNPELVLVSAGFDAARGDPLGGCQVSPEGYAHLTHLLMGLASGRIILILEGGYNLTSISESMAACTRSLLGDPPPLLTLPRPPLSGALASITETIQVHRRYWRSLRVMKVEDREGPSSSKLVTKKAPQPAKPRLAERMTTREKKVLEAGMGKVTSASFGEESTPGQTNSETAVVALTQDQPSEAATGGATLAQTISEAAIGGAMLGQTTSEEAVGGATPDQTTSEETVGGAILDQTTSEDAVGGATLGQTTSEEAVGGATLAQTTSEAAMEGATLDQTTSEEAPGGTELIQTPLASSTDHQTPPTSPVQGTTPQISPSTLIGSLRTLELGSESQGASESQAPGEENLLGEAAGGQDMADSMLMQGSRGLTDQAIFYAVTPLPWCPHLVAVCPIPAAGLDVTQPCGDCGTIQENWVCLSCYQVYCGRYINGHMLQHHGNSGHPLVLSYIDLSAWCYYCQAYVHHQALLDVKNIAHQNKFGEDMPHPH
assay.readout: inhibition at 10 µM (%)

Look over these answered cases.
smiles | tested.system | inhibition at 10 µM, %
O=C(NO)C1CCN(Cc2ccc(-c3ccccc3)cc2)CC1 | HDAC6 (Homo sapiens, UniProt Q9UBN7) | 57
O=C(NO)C1CCN(CCc2ccc(Br)cc2)CC1 | HDAC6 (Homo sapiens, UniProt Q9UBN7) | 18
O=C(NO)C1CCN(CC(c2ccccc2)c2ccccc2)CC1 | HDAC6 (Homo sapiens, UniProt Q9UBN7) | 65
O=C(NO)C1CCN(CCCc2ccccc2)CC1 | HDAC6 (Homo sapiens, UniProt Q9UBN7) | -3
O=C(NO)C1CCN(CCc2cccc(Br)c2)CC1 | HDAC6 (Homo sapiens, UniProt Q9UBN7) | 28
O=C(NO)C1CCN(CCc2ccccc2)CC1 | HDAC6 (Homo sapiens, UniProt Q9UBN7) | 17

A. O=C(NO)C1CCN(CCNCc2ccccc2)CC1
B. O=C(NO)C1CCN(Cc2ccccc2)CC1
[ask] Would you let me know which has the greater inhibition at 10 µM value, A or B ? // return label of chosen record
[reply] B
